target: trypanosome alternative oxidase (TAO) (Trypanosoma brucei brucei); assay: biochemical; details: IC50, recombinant AOX expressed in E. coli membranes; mean ± SD of n = 3 isolations; 37 °C, pH 7.4, 1.25 mM NADH, 1 mM KCN
Sequence (Q26710 whole entry): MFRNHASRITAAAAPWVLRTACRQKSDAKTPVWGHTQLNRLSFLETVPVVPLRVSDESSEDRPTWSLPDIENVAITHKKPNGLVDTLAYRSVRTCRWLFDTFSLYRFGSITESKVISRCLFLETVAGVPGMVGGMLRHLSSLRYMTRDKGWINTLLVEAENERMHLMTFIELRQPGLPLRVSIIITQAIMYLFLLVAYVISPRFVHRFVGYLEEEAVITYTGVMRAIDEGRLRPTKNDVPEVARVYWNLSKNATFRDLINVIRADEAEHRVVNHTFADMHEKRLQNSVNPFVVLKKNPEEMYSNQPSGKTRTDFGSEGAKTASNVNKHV
metric.name: IC50 (nM)
Express your answer in nM, writing the number without its unit.

Reading of IC50 for CCCOC(=O)c1cc(O)c(O)c(O)c1 [Propyl gallate] with trypanosome alternative oxidase (TAO) (Trypanosoma brucei brucei): 1400

###

biological target: UniProt Q26710; assay: biochemical; conditions: pIC50 Exp, external validation set; -log IC50 of values measured by respirometry
metric.name: IC50 (nM)
Express your answer in nM, writing the number without its unit.

Reading of IC50 for CC(/C=C/[C@@]1(C)[C@H](C)CCC(=O)[C@@H]1C)=C\Cc1c(O)c(Cl)c(C)c(C=O)c1O with UniProt Q26710: 7.4

Reading of IC50 for CC(C)=CCC/C(C)=C/CC/C(C)=C/Cc1c(O)c2ccccc2oc1=O with UniProt Q26710: 53.1

Reading of IC50 for CCCCCCCCOC(=O)c1cc(O)c(O)c(O)c1 [Octyl gallate] with UniProt Q26710: 230

Reading of IC50 for CC(C)=CCc1c(O)c(Cl)c(C)c(C=O)c1O with UniProt Q26710: 33
